The origin of these recorded values is patent US4698327A.

Tested on: Staphylococcus aureus V41
Assay: MIC, standard agar-dilution assay
Assay type: cell-based
Known MIC of a selection of molecules
Measured metric: MIC (µg/mL)

CNC(CC(C)C)C(=O)NC1C(=O)NC(CC(N)=O)C(=O)NC2C(=O)NC3C(=O)NC(C(=O)NC(C(=O)O)c4cc(O)cc(O)c4-c4cc3ccc4O)C(O)c3ccc(c(Cl)c3)Oc3cc2cc(c3OC2OC(CO)C(O)C(O)C2OC2CC(C)(NCc3ccc(O)cc3)C(O)C(C)O2)Oc2ccc(cc2Cl)C1O (stereo not drawn) [Example 105, N^van --( -p-hydroxybenzyl)vancomycin] : 0.5
CCCCCCNC1(C)CC(OC2C(Oc3c4cc5cc3Oc3ccc(cc3Cl)C(O)C3NC(=O)C(NC(=O)C5NC(=O)C(CC(N)=O)NC(=O)C(NC(=O)C(CC(C)C)NC)C(O)c5ccc(c(Cl)c5)O4)c4ccc(O)c(c4)-c4c(O)cc(O)cc4C(C(=O)O)NC3=O)OC(CO)C(O)C2O)OC(C)C1O (stereo not drawn) [Compound 13, N^van --(n-hexyl)vancomycin] : 1
CCCCCNC1(C)CC(OC2C(Oc3c4cc5cc3Oc3ccc(cc3Cl)C(O)C3NC(=O)C(NC(=O)C5NC(=O)C(CC(N)=O)NC(=O)C(NC(=O)C(CC(C)C)NC)C(O)c5ccc(c(Cl)c5)O4)c4ccc(O)c(c4)-c4c(O)cc(O)cc4C(C(=O)O)NC3=O)OC(CO)C(O)C2O)OC(C)C1O (stereo not drawn) [Compound 15, N^van --(n-pentyl)vancomycin] : 1

---

System: Staphylococcus aureus V41
Test: MIC, standard agar-dilution assay
Format: cell-based
Reported values of log10(MIC) for individual entries
Measured metric: log10(MIC) (log10 of the value in µg/mL)

CCCCOc1ccc(CNC2(C)CC(OC3C(Oc4c5cc6cc4Oc4ccc(cc4Cl)C(O)C4NC(=O)C(NC(=O)C6NC(=O)C(CC(N)=O)NC(=O)C(NC(=O)C(CC(C)C)NC)C(O)c6ccc(c(Cl)c6)O5)c5ccc(O)c(c5)-c5c(O)cc(O)cc5C(C(=O)O)NC4=O)OC(CO)C(O)C3O)OC(C)C2O)cc1 (centres unmarked) [Example 84, N^van --( -p-butoxybenzyl)vancomycin] : -0.90
CCCCCCCCCNC1(C)CC(OC2C(Oc3c4cc5cc3Oc3ccc(cc3Cl)C(O)C(NC(=O)C(CC(C)C)N(C)CCCCCCCCC)C(=O)NC(CC(N)=O)C(=O)NC5C(=O)NC3C(=O)NC(C(=O)NC(C(=O)O)c5cc(O)cc(O)c5-c5cc3ccc5O)C(O)c3ccc(c(Cl)c3)O4)OC(CO)C(O)C2O)OC(C)C1O (centres unmarked) [Compound 6, N^van, N^leu --di(n-nonyl)vancomycin] : 0.00
CCCNC1(C)CC(OC2C(Oc3c4cc5cc3Oc3ccc(cc3Cl)C(O)C(NC(=O)C(CC(C)C)N(C)CCC)C(=O)NC(CC(N)=O)C(=O)NC5C(=O)NC3C(=O)NC(C(=O)NC(C(=O)O)c5cc(O)cc(O)c5-c5cc3ccc5O)C(O)c3ccc(c(Cl)c3)O4)OC(CO)C(O)C2O)OC(C)C1O (centres unmarked) [Compound 22, N^van, N^leu --di(n-propyl)vancomycin] : 0.30
CCCCCCCCOc1ccc(CNC2(C)CC(OC3C(Oc4c5cc6cc4Oc4ccc(cc4Cl)C(O)C4NC(=O)C(NC(=O)C6NC(=O)C(CC(N)=O)NC(=O)C(NC(=O)C(CC(C)C)NC)C(O)c6ccc(c(Cl)c6)O5)c5ccc(O)c(c5)-c5c(O)cc(O)cc5C(C(=O)O)NC4=O)OC(CO)C(O)C3O)OC(C)C2O)cc1 (centres unmarked) [Example 94, N^van --( -p-octyloxybenzyl)vancomycin] : -0.30
CCN(CC)c1ccc(CNC2(C)CC(OC3C(Oc4c5cc6cc4Oc4ccc(cc4Cl)C(O)C4NC(=O)C(NC(=O)C6NC(=O)C(CC(N)=O)NC(=O)C(NC(=O)C(CC(C)C)NC)C(O)c6ccc(c(Cl)c6)O5)c5ccc(O)c(c5)-c5c(O)cc(O)cc5C(C(=O)O)NC4=O)OC(CO)C(O)C3O)OC(C)C2O)cc1 (centres unmarked) [Example 77, N^van ( -p-diethylaminobenzyl)vancomycin] : -0.30
CCCCCCCCN(C)C(CC(C)C)C(=O)NC1C(=O)NC(CC(N)=O)C(=O)NC2C(=O)NC3C(=O)NC(C(=O)NC(C(=O)O)c4cc(O)cc(O)c4-c4cc3ccc4O)C(O)c3ccc(c(Cl)c3)Oc3cc2cc(c3OC2OC(CO)C(O)C(O)C2OC2CC(C)(N)C(O)C(C)O2)Oc2ccc(cc2Cl)C1O (centres unmarked) [Compound 8, N^leu --(n-octyl)vancomycin] : -0.30
CCCCCCCCCCNC1(C)CC(OC2C(Oc3c4cc5cc3Oc3ccc(cc3Cl)C(O)C3NC(=O)C(NC(=O)C5NC(=O)C(CC(N)=O)NC(=O)C(NC(=O)C(N)CC(C)C)C(O)c5ccc(c(Cl)c5)O4)c4ccc(O)c(c4)-c4c(O)cc(O)cc4C(C(=O)O)NC3=O)OC(CO)C(O)C2O)OC(C)C1O (centres unmarked) [Compound 26, N^van --(n-decyl)-A51568A] : -0.60
CCCCCCCCNC1(C)CC(OC2C(Oc3c4cc5cc3Oc3ccc(cc3Cl)C(O)C3NC(=O)C(NC(=O)C5NC(=O)C(CC(N)=O)NC(=O)C(NC(=O)C(CC(C)C)NC)C(O)c5ccc(c(Cl)c5)O4)c4ccc(O)c(c4)-c4c(O)cc(O)cc4C(C(=O)O)NC3=O)OC(CO)C(O)C2O)OC(C)C1O (centres unmarked) [Compound 7, N^van --(n-octyl)vancomycin] : -0.60
CCCCc1ccc(CNC2(C)CC(OC3C(Oc4c5cc6cc4Oc4ccc(cc4Cl)C(O)C4NC(=O)C(NC(=O)C6NC(=O)C(CC(N)=O)NC(=O)C(NC(=O)C(CC(C)C)NC)C(O)c6ccc(c(Cl)c6)O5)c5ccc(O)c(c5)-c5c(O)cc(O)cc5C(C(=O)O)NC4=O)OC(CO)C(O)C3O)OC(C)C2O)cc1 (centres unmarked) [Example 81, N^van --( -p-butylbenzyl)vancomycin] : -0.90
CCCCNC1(C)CC(OC2C(Oc3c4cc5cc3Oc3ccc(cc3Cl)C(O)C(NC(=O)C(CC(C)C)N(C)CCCC)C(=O)NC(CC(N)=O)C(=O)NC5C(=O)NC3C(=O)NC(C(=O)NC(C(=O)O)c5cc(O)cc(O)c5-c5cc3ccc5O)C(O)c3ccc(c(Cl)c3)O4)OC(CO)C(O)C2O)OC(C)C1O (centres unmarked) [Compound 19, N^van, N^leu --di(n-butyl)vancomycin] : 0.00
CCCCCCCCNC1(C)CC(OC2C(Oc3c4cc5cc3Oc3ccc(cc3Cl)C(O)C(NC(=O)C(CC(C)C)N(C)CCCCCCCC)C(=O)NC(CC(N)=O)C(=O)NC5C(=O)NC3C(=O)NC(C(=O)NC(C(=O)O)c5cc(O)cc(O)c5-c5cc3ccc5O)C(O)c3ccc(c(Cl)c3)O4)OC(CO)C(O)C2O)OC(C)C1O (centres unmarked) [Compound 9, N^van, N^leu --di(n-octyl)vancomycin] : 0.00

---

Listed below: MIC values for each entry.
System: Escherichia coli EC14
Assay: MIC, standard agar-dilution assay
Assay type: cell-based
Measured metric: MIC

CCCCCCCCCNC1(C)CC(OC2C(Oc3c4cc5cc3Oc3ccc(cc3Cl)C(O)C(NC(=O)C(CC(C)C)N(C)CCCCCCCCC)C(=O)NC(CC(N)=O)C(=O)NC5C(=O)NC3C(=O)NC(C(=O)NC(C(=O)O)c5cc(O)cc(O)c5-c5cc3ccc5O)C(O)c3ccc(c(Cl)c3)O4)OC(CO)C(O)C2O)OC(C)C1O (centres unmarked) : > 128 µg/mL
CCCCCCCCNC1(C)CC(OC2C(Oc3c4cc5cc3Oc3ccc(cc3Cl)C(O)C(NC(=O)C(CC(C)C)N(C)CCCCCCCC)C(=O)NC(CC(N)=O)C(=O)NC5C(=O)NC3C(=O)NC(C(=O)NC(C(=O)O)c5cc(O)cc(O)c5-c5cc3ccc5O)C(O)c3ccc(c(Cl)c3)O4)OC(CO)C(O)C2O)OC(C)C1O (centres unmarked) : > 128 µg/mL

---

Recorded MIC for the following compounds
Test system: Klebsiella pneumoniae X68
Assay: MIC, standard agar-dilution assay
Assay type: cell-based
Measured metric: MIC

CCCCCCCCCCNC1(C)CC(OC2C(Oc3c4cc5cc3Oc3ccc(cc3Cl)C(O)C3NC(=O)C(NC(=O)C5NC(=O)C(CC(N)=O)NC(=O)C(NC(=O)C(CC(C)C)NC)C(O)c5ccc(c(Cl)c5)O4)c4ccc(O)c(c4)-c4c(O)cc(O)cc4C(C(=O)O)NC3=O)OC(CO)C(O)C2O)OC(C)C1O (stereo not drawn) [Compound 2, N^van -(n-decyl)vancomycin] : > 128 µg/mL
CCCCCCNC1(C)CC(OC2C(Oc3c4cc5cc3Oc3ccc(cc3Cl)C(O)C3NC(=O)C(NC(=O)C5NC(=O)C(CC(N)=O)NC(=O)C(NC(=O)C(CC(C)C)NC)C(O)c5ccc(c(Cl)c5)O4)c4ccc(O)c(c4)-c4c(O)cc(O)cc4C(C(=O)O)NC3=O)OC(CO)C(O)C2O)OC(C)C1O (stereo not drawn) [Compound 13, N^van --(n-hexyl)vancomycin] : > 128 µg/mL
CCCCCNC1(C)CC(OC2C(Oc3c4cc5cc3Oc3ccc(cc3Cl)C(O)C3NC(=O)C(NC(=O)C5NC(=O)C(CC(N)=O)NC(=O)C(NC(=O)C(CC(C)C)NC)C(O)c5ccc(c(Cl)c5)O4)c4ccc(O)c(c4)-c4c(O)cc(O)cc4C(C(=O)O)NC3=O)OC(CO)C(O)C2O)OC(C)C1O (stereo not drawn) [Compound 15, N^van --(n-pentyl)vancomycin] : > 128 µg/mL
